- Assayed target: phosphorylation levels of ERK1/2 in AsPC-1 (homozygous KRAS-G12D) cells (Homo sapiens, UniProt P01116, G12D)
- Sequence (P01116 1-186 G12D): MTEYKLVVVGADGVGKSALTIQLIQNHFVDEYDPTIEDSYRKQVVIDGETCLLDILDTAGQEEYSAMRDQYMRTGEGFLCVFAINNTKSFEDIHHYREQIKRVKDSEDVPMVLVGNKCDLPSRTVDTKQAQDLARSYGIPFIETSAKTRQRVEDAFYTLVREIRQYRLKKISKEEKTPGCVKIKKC
- Measurement description: Cellular phospho-ERK assay in AsPC-1 cells (Alpha Screen), assay medium without fetal bovine serum
- Conditions used: phospho-ERK AlphaScreen, 18 h
*1 amine or outer side, *2 acyl side, *3 side chain or, on linkers, in order; H or OH if unused. Where a SMILES comes first, the peptide text is derived from it. [ ]: non-standard residue; d: D form. Ala(pyrimidin-5-yl) = N[C@@H](Cc1cncnc1)C(=O)O; X14 = O=C([C@H](Cc1c(F)cncc1F)N[*:1])[*:2]; X33 = O=C([C@H](Cc1ccnc(F)c1F)N[*:1])[*:2]; X1 = O=C(C12CC(CN[*:1])(C1)C2)[*:2]; Ala(cPr) = N[C@@H](CC1CC1)C(=O)O; NMeF = CN[C@@H](Cc1ccccc1)C(=O)O; PhLac = O=C(O)[C@@H](O)Cc1ccccc1; hLeu = CC(C)CC[C@H](N)C(=O)O; NMeA = CN[C@@H](C)C(=O)O
Value type: pEC50
// returns pEC50 (minus log10 of molar concentration), number only

Molecule	pEC50
CC(C)CC[C@@H]1NC(=O)[C@H](Cc2c(F)cncc2F)NC(=O)[C@H](CC2CC2)NC(=O)[C@H](Cc2cncnc2)NC(=O)[C@H](C)N(C)C(=O)[C@H](Cc2ccccc2)OC(=O)C23CC(CNC(=O)[C@H](Cc4ccccc4)N(C)C1=O)(C2)C3 [compound 292] (cyclo([Ala(cPr)][X14][hLeu][NMeF][X1][PhLac][NMeA][Ala(pyrimidin-5-yl)]))	4.84

input: Could you tell me which pEC50 is on file for CC(C)CC[C@@H]1NC(=O)[C@H](Cc2ccnc(F)c2F)NC(=O)[C@H](CC2CC2)NC(=O)[C@H](Cc2cncnc2)NC(=O)[C@H](C)N(C)C(=O)[C@H](Cc2ccccc2)OC(=O)C23CC(CNC(=O)[C@H](Cc4ccccc4)N(C)C1=O)(C2)C3 [compound 293] (cyclo([Ala(cPr)][X33][hLeu][NMeF][X1][PhLac][NMeA][Ala(pyrimidin-5-yl)])) ?
output: 4.34

----------
- Assayed target: phosphorylation levels of ERK1/2 in AsPC-1 (homozygous KRAS-G12D) cells (Homo sapiens, UniProt P01116, G12D)
- Measurement description: Cellular phospho-ERK assay in AsPC-1 cells (Alpha Screen), assay medium without fetal bovine serum;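 also: signal taken as phospho-ERK over total ERK per well, both detected in one multiplex bead assay, EC50 from four-parameter logistic fit of dose-response curves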
- Conditions used: phospho-ERK AlphaScreen, 18 h
*1 amine or outer side, *2 acyl side, *3 side chain or, on linkers, in order; H or OH if unused. Where a SMILES comes first, the peptide text is derived from it. Bridges are numbered along the chain shown (N, C = ends). [ ]: non-standard residue; d: D form. cBu(1-CO,cis-3-CH2NH) = O=C([C@H]1C[C@@H](CN[*:1])C1)[*:2]; Phe(4-guanidino) = N=C(N)Nc1ccc(C[C@H](N)C(=O)O)cc1; X18 = CNC(=N)N(C)c1ccc(C[C@H](N[*:1])C(=O)[*:2])cc1; X22 = CNC(=N)N(C)CCC[C@@H](C(=O)[*:2])N(C)[*:1]; Ala(pyrimidin-5-yl) = N[C@@H](Cc1cncnc1)C(=O)O; Ala(thiazol-5-yl) = N[C@@H](Cc1cncs1)C(=O)O; NMePhe(4-Me) = CN[C@@H](Cc1ccc(C)cc1)C(=O)O; X46 = O=C([C@H](Cc1cccnc1F)N[*:1])[*:2]; Phe(3-Me) = Cc1cccc(C[C@H](N)C(=O)O)c1; Phe(2-F) = N[C@@H](Cc1ccccc1F)C(=O)O; NMe3Pal = CN[C@@H](Cc1cccnc1)C(=O)O; X1 = O=C(C12CC(CN[*:1])(C1)C2)[*:2]; Ala(cPr) = N[C@@H](CC1CC1)C(=O)O; NMeF = CN[C@@H](Cc1ccccc1)C(=O)O; PhLac = O=C(O)[C@@H](O)Cc1ccccc1; 3Pal = N[C@@H](Cc1cccnc1)C(=O)O; Ahp(2) = CCCCC[C@H](N)C(=O)O; Cba = N[C@@H](CC1CCC1)C(=O)O; hLeu = CC(C)CC[C@H](N)C(=O)O; αMeC = C[C@](N)(CS)C(=O)O; NMeA = CN[C@@H](C)C(=O)O; Nle = CCCC[C@H](N)C(=O)O
Labelling field: enter fulfilled if recorded EC50 is less than 10 µM. Enter not fulfilled if it equals or exceeds that cut-off.

Please review the entries below; each comes with its answer.
Molecule	Classification
CC(C)CC[C@@H]1NC(=O)[C@H](Cc2ccccc2F)NC(=O)[C@H](CC2CC2)NC(=O)[C@H](Cc2cncnc2)NC(=O)[C@H](C)N(C)C(=O)[C@H](Cc2ccccc2)OC(=O)C23CC(CNC(=O)[C@H](Cc4ccccc4)N(C)C1=O)(C2)C3 [compound 260] (cyclo([Ala(cPr)][Phe(2-F)][hLeu][NMeF][X1][PhLac][NMeA][Ala(pyrimidin-5-yl)]))	fulfilled
CCCC[C@@H]1NC(=O)[C@H](Cc2cncnc2)NC(=O)[C@H](C)N(C)C(=O)[C@H](Cc2ccccc2)OC(=O)C23CC(CNC(=O)[C@H](Cc4ccc(C)cc4)N(C)C(=O)[C@H](CCCC)NC(=O)[C@H](Cc4ccccc4F)NC1=O)(C2)C3 [compound 171] (cyclo([NMeA][Ala(pyrimidin-5-yl)][Nle][Phe(2-F)][Nle][NMePhe(4-Me)][X1][PhLac]))	fulfilled
CCCC[C@@H]1NC(=O)[C@H](Cc2ccc(N(C)C(=N)NC)cc2)NC(=O)[C@H](C)N(C)C(=O)[C@H](Cc2ccccc2)OC(=O)CSC[C@@](C)(C(N)=O)NC(=O)[C@H](Cc2cccnc2)N(C)C(=O)[C@H](CCCC)NC(=O)[C@H](Cc2ccccc2F)NC1=O [compound 397] ({CH2CO}-[PhLac][NMeA][X18][Nle][Phe(2-F)][Nle][NMe3Pal][αMeC]-NH2; thioether N-8)	not fulfilled
CCCC[C@@H]1NC(=O)[C@H](Cc2cccnc2)NC(=O)[C@H](C)N(C)C(=O)[C@H](Cc2cccc(C)c2)NC(=O)C23CC(CNC(=O)[C@H](Cc4cccnc4)N(C)C(=O)[C@H](CCCC)NC(=O)[C@H](Cc4ccccc4F)NC1=O)(C2)C3 [compound 166] (cyclo([3Pal][Nle][Phe(2-F)][Nle][NMe3Pal][X1][Phe(3-Me)][NMeA]))	not fulfilled
CCCC[C@@H]1NC(=O)[C@H](Cc2cccnc2F)NC(=O)[C@H](C)N(C)C(=O)[C@H](Cc2ccccc2)OC(=O)C23CC(CNC(=O)[C@H](Cc4cccnc4)N(C)C(=O)[C@H](CCCC)NC(=O)[C@H](Cc4ccccc4F)NC1=O)(C2)C3 [compound 117] (cyclo([NMe3Pal][X1][PhLac][NMeA][X46][Nle][Phe(2-F)][Nle]))	not fulfilled

input: Consider the molecule CCCC[C@@H]1NC(=O)[C@H](Cc2ccc(NC(=N)N)cc2)NC(=O)[C@H](CCCN(C)C(=N)NC)N(C)C(=O)[C@H](Cc2ccccc2)NC(=O)[C@H]2C[C@@H](CNC(=O)[C@H](Cc3ccccc3)N(C)C(=O)[C@H](CCCC)NC(=O)[C@H](Cc3ccc(OC)cc3)NC1=O)C2 [compound 384] (cyclo(F[X22][Phe(4-guanidino)][Nle]Y(Me)[Nle][NMeF][cBu(1-CO,cis-3-CH2NH)])) . Is its EC50 strictly less than 10 µM?
output: not fulfilled

input: Could you do the same for CCCCC[C@@H]1NC(=O)[C@H](Cc2ccc(OC)cc2)NC(=O)[C@H](CC2CCC2)NC(=O)[C@H](Cc2cncs2)NC(=O)[C@H](CCCNC(=N)N)NC(=O)[C@H](Cc2ccccc2)NC(=O)CSC[C@@](C)(C(N)=O)NC(=O)[C@H](Cc2ccccc2)N(C)C1=O [compound 363] ({CH2CO}-FR[Ala(thiazol-5-yl)][Cba]Y(Me)[Ahp(2)][NMeF][αMeC]-NH2; thioether N-8) , please?
output: not fulfilled

input: Could you do the same for CCCC[C@@H]1NC(=O)[C@H](Cc2cccnc2)NC(=O)[C@H](C)N(C)C(=O)[C@H](Cc2ccc(OC)cc2)NC(=O)C23CC(CNC(=O)[C@H](Cc4cccnc4)N(C)C(=O)[C@H](CCCC)NC(=O)[C@H](Cc4ccccc4F)NC1=O)(C2)C3 [compound 169] (cyclo([3Pal][Nle][Phe(2-F)][Nle][NMe3Pal][X1]Y(Me)[NMeA])) , please?
output: not fulfilled

input: Could you do the same for CC(C)CC[C@@H]1NC(=O)[C@H](Cc2cccnc2F)NC(=O)[C@H](CC2CC2)NC(=O)[C@H](Cc2cncnc2)NC(=O)[C@H](C)N(C)C(=O)[C@H](Cc2ccccc2)OC(=O)C23CC(CNC(=O)[C@H](Cc4ccccc4)N(C)C1=O)(C2)C3 [compound 215] (cyclo([Ala(cPr)][X46][hLeu][NMeF][X1][PhLac][NMeA][Ala(pyrimidin-5-yl)])) , please?
output: fulfilled

input: Could you do the same for "CCCCC[C@@H]1NC(=O)[C@H](Cc2ccc(OC)cc2)NC(=O)[C@H](CC2CCC2)NC(=O)[C@H](Cc2ccc(C)nc2)NC(=O)[C@H](CCCNC(=N)N)NC(=O)[C@H](Cc2ccccc2)NC(=O)CSC[C@@](C)(C(N)=O)NC(=O)[C@H](Cc2ccccc2)N(C)C1=O" , please?
output: not fulfilled

input: Could you do the same for CCCC[C@@H]1NC(=O)[C@H](Cc2cncnc2)NC(=O)[C@H](C)N(C)C(=O)[C@H](Cc2ccccc2)OC(=O)C23CC(CNC(=O)[C@H](Cc4cccnc4)N(C)C(=O)[C@H](CCCC)NC(=O)[C@H](Cc4ccccc4F)NC1=O)(C2)C3 [compound 237] (cyclo([NMe3Pal][X1][PhLac][NMeA][Ala(pyrimidin-5-yl)][Nle][Phe(2-F)][Nle])) , please?
output: not fulfilled
